- System: 485368-065-R4-J2-PDC spheroids with HUVEC/MSC, viability
- test_summary: Anticancer human tumor 485368-065-R4-J2-PDC patient-derived pancreatic carcinoma cell line growth inhibition [CLK]
- condition_details: second compound 1 µM; first compound 0.03 µM; stronger effect = lower value
measured_quantity: viability, T/C (%)
Field: numeric (%). Do not append units.

Request: What viability, T/C appears in the records for this molecule with 485368-065-R4-J2-PDC spheroids with HUVEC/MSC, viability? CC(C)CC(NC(=O)C(Cc1ccccc1)NC(=O)c1cnccn1)B(O)O (stereo unspecified) + CNC(=O)c1ccc(Nc2nc(OC3CCCC3)c3c(-c4ccc5nc(C)oc5c4)c[nH]c3n2)c(OC)c1
Result: 12.9

Request: What viability, T/C appears in the records for this molecule with 485368-065-R4-J2-PDC spheroids with HUVEC/MSC, viability? NC(=O)C(=Cn1cnc(-c2cc(C(F)(F)F)cc(C(F)(F)F)c2)n1)c1cncnc1 + CNC(=O)c1ccc(Nc2nc(OC3CCCC3)c3c(-c4ccc5nc(C)oc5c4)c[nH]c3n2)c(OC)c1
Result: 114

Request: What viability, T/C appears in the records for this molecule with 485368-065-R4-J2-PDC spheroids with HUVEC/MSC, viability? C=CC(=O)Nc1cc(Nc2nccc(-c3cn(C)c4ccccc34)n2)c(OC)cc1N(C)CCN(C)C + CN1CCN(c2cc(C(=O)Nc3cc4cc(-c5cnn(C)c5)ccc4cn3)ccn2)CC1
Result: 0.9

Request: What viability, T/C appears in the records for this molecule with 485368-065-R4-J2-PDC spheroids with HUVEC/MSC, viability? C=CC(=O)Nc1cc(Nc2nccc(-c3cn(C)c4ccccc34)n2)c(OC)cc1N(C)CCN(C)C + CNC(=O)c1ccc(Nc2nc(OC3CCCC3)c3c(-c4ccc5nc(C)oc5c4)c[nH]c3n2)c(OC)c1
Result: 79.4

Request: What viability, T/C appears in the records for this molecule with 485368-065-R4-J2-PDC spheroids with HUVEC/MSC, viability? NC(=O)C(=Cn1cnc(-c2cc(C(F)(F)F)cc(C(F)(F)F)c2)n1)c1cncnc1 + CN1CCN(c2cc(C(=O)Nc3cc4cc(-c5cnn(C)c5)ccc4cn3)ccn2)CC1
Result: 1.37

Request: What viability, T/C appears in the records for this molecule with 485368-065-R4-J2-PDC spheroids with HUVEC/MSC, viability? CC(C)CC(NC(=O)C(Cc1ccccc1)NC(=O)c1cnccn1)B(O)O (stereo unspecified) + CN1CCN(c2cc(C(=O)Nc3cc4cc(-c5cnn(C)c5)ccc4cn3)ccn2)CC1
Result: 1.87

====

- System: 485368-065-R4-J2-PDC spheroids with HUVEC/MSC, viability
- test_summary: Anticancer human tumor 485368-065-R4-J2-PDC cell line growth inhibition [CLK];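 further: spheroids exposed to compounds for seven days; 100% = DMSO vehicle control wells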
- condition_details: second compound 0.0316 µM; first compound 1 µM; stronger effect = lower value
Can you tell me viability, T/C for the items I'm about to list?
Field: numeric (%). Do not append units.

Request: What value of viability, T/C has been reported for the following molecule? CC(=O)O[C@H]1C(=O)[C@@]2(C)[C@H]([C@H](OC(=O)c3ccccc3)[C@]3(O)C[C@H](OC(=O)[C@H](O)[C@@H](NC(=O)c4ccccc4)c4ccccc4)C(C)=C1C3(C)C)[C@]1(OC(C)=O)CO[C@@H]1C[C@@H]2O + CNC(=O)c1ccc(Nc2nc(OC3CCCC3)c3c(-c4ccc5nc(C)oc5c4)c[nH]c3n2)c(OC)c1
Result: 62.6

Request: What value of viability, T/C has been reported for the following molecule? O=c1[nH]cc(F)c(=O)[nH]1 + CN1CCN(c2cc(C(=O)Nc3cc4cc(-c5cnn(C)c5)ccc4cn3)ccn2)CC1
Result: 112

Request: What value of viability, T/C has been reported for the following molecule? COc1ccc([C@@H](O)c2cc(-c3ncnc4cc(N5CCOCC5)ccc34)c(F)cc2Cl)nn1 + CNC(=O)c1ccc(Nc2nc(OC3CCCC3)c3c(-c4ccc5nc(C)oc5c4)c[nH]c3n2)c(OC)c1
Result: 103

====

- Tested on: 485368-065-R4-J2-PDC spheroids with HUVEC/MSC, viability
- test_summary: Anticancer human tumor 485368-065-R4-J2-PDC cell line growth inhibition [CLK];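 further: spheroids exposed to compounds for seven days; 100% = DMSO vehicle control wells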
- condition_details: second compound 10 µM; first compound 10 µM; stronger effect = lower value
Please use TRUE for viability, T/C under 3% and FALSE for everything else, ties included.

Request: viability, T/C strictly < 3% for this compound? CC(CO)NC(=O)c1cc(-c2ccc(Cl)cc2)nn(-c2cnn(C)c2)c1=O (stereo not given) + CN1CCN(c2cc(C(=O)Nc3cc4cc(-c5cnn(C)c5)ccc4cn3)ccn2)CC1
Result: TRUE

Request: viability, T/C strictly < 3% for this compound? Nc1ccn(C2OC(CO)C(O)C2(F)F)c(=O)n1 (stereo not given) + CN1CCN(c2cc(C(=O)Nc3cc4cc(-c5cnn(C)c5)ccc4cn3)ccn2)CC1
Result: TRUE

Request: viability, T/C strictly < 3% for this compound? CC1(C)CCC(CN2CCN(c3ccc(C(=O)NS(=O)(=O)c4ccc(NCC5CCOCC5)c([N+](=O)[O-])c4)c(Oc4cnc5[nH]ccc5c4)c3)CC2)=C(c2ccc(Cl)cc2)C1 + CNC(=O)c1ccc(Nc2nc(OC3CCCC3)c3c(-c4ccc5nc(C)oc5c4)c[nH]c3n2)c(OC)c1
Result: FALSE

Request: viability, T/C strictly < 3% for this compound? C=CC(=O)N1CCN(c2nc(=O)n(-c3c(C)ccnc3C(C)C)c3nc(-c4c(O)cccc4F)c(F)cc23)C(C)C1 (stereo not given) + CNC(=O)c1ccc(Nc2nc(OC3CCCC3)c3c(-c4ccc5nc(C)oc5c4)c[nH]c3n2)c(OC)c1
Result: FALSE

Request: viability, T/C strictly < 3% for this compound? C=C(F)C(=O)N1CCN(c2nc(OCC3CCCN3C)nc3c2CCN(c2cccc4cccc(Cl)c24)C3)CC1CC#N (stereo not given) + CNC(=O)c1ccc(Nc2nc(OC3CCCC3)c3c(-c4ccc5nc(C)oc5c4)c[nH]c3n2)c(OC)c1
Result: FALSE

Request: viability, T/C strictly < 3% for this compound? CC(=O)O[C@H]1C(=O)[C@@]2(C)[C@H]([C@H](OC(=O)c3ccccc3)[C@]3(O)C[C@H](OC(=O)[C@H](O)[C@@H](NC(=O)c4ccccc4)c4ccccc4)C(C)=C1C3(C)C)[C@]1(OC(C)=O)CO[C@@H]1C[C@@H]2O + CN1CCN(c2cc(C(=O)Nc3cc4cc(-c5cnn(C)c5)ccc4cn3)ccn2)CC1
Result: TRUE

Request: viability, T/C strictly < 3% for this compound? O=c1[nH]cc(F)c(=O)[nH]1 + CN1CCN(c2cc(C(=O)Nc3cc4cc(-c5cnn(C)c5)ccc4cn3)ccn2)CC1
Result: TRUE

Request: viability, T/C strictly < 3% for this compound? C=CC(=O)N1CCN(c2nc(=O)n(-c3c(C)ccnc3C(C)C)c3nc(-c4c(O)cccc4F)c(F)cc23)C(C)C1 (stereo not given) + CN1CCN(c2cc(C(=O)Nc3cc4cc(-c5cnn(C)c5)ccc4cn3)ccn2)CC1
Result: FALSE

Request: viability, T/C strictly < 3% for this compound? COC1C=CCC(C)C(C)S(=O)(=O)NC(=O)c2ccc3c(c2)N(CC2CCC21)CC1(CCCc2cc(Cl)ccc21)CO3 (stereo not given) + CNC(=O)c1ccc(Nc2nc(OC3CCCC3)c3c(-c4ccc5nc(C)oc5c4)c[nH]c3n2)c(OC)c1
Result: FALSE

Request: viability, T/C strictly < 3% for this compound? COc1ccc([C@@H](O)c2cc(-c3ncnc4cc(N5CCOCC5)ccc34)c(F)cc2Cl)nn1 + CNC(=O)c1ccc(Nc2nc(OC3CCCC3)c3c(-c4ccc5nc(C)oc5c4)c[nH]c3n2)c(OC)c1
Result: FALSE

Request: viability, T/C strictly < 3% for this compound? O=C(c1cc(Cc2n[nH]c(=O)c3ccccc23)ccc1F)N1CCN(C(=O)C2CC2)CC1 + CN1CCN(c2cc(C(=O)Nc3cc4cc(-c5cnn(C)c5)ccc4cn3)ccn2)CC1
Result: TRUE

Request: viability, T/C strictly < 3% for this compound? COC1C=CCC(C)C(C)S(=O)(=O)NC(=O)c2ccc3c(c2)N(CC2CCC21)CC1(CCCc2cc(Cl)ccc21)CO3 (stereo not given) + CN1CCN(c2cc(C(=O)Nc3cc4cc(-c5cnn(C)c5)ccc4cn3)ccn2)CC1
Result: TRUE

Request: viability, T/C strictly < 3% for this compound? C#Cc1c(F)ccc2cc(O)cc(-c3ncc4c(N5CC6CCC(C5)N6)nc(OCC56CCCN5CC(F)C6)nc4c3F)c12 (stereo not given) + CN1CCN(c2cc(C(=O)Nc3cc4cc(-c5cnn(C)c5)ccc4cn3)ccn2)CC1
Result: TRUE

Request: viability, T/C strictly < 3% for this compound? CC(CO)NC(=O)c1cc(-c2ccc(Cl)cc2)nn(-c2cnn(C)c2)c1=O (stereo not given) + CNC(=O)c1ccc(Nc2nc(OC3CCCC3)c3c(-c4ccc5nc(C)oc5c4)c[nH]c3n2)c(OC)c1
Result: FALSE

Request: viability, T/C strictly < 3% for this compound? O=C(c1cc(Cc2n[nH]c(=O)c3ccccc23)ccc1F)N1CCN(C(=O)C2CC2)CC1 + CNC(=O)c1ccc(Nc2nc(OC3CCCC3)c3c(-c4ccc5nc(C)oc5c4)c[nH]c3n2)c(OC)c1
Result: FALSE

Request: viability, T/C strictly < 3% for this compound? CC1COCCN1c1cc(C2(S(C)(=N)=O)CC2)nc(-c2ccnc3[nH]ccc23)n1 (stereo not given) + CNC(=O)c1ccc(Nc2nc(OC3CCCC3)c3c(-c4ccc5nc(C)oc5c4)c[nH]c3n2)c(OC)c1
Result: FALSE

Request: viability, T/C strictly < 3% for this compound? Nc1ccn(C2OC(CO)C(O)C2(F)F)c(=O)n1 (stereo not given) + CNC(=O)c1ccc(Nc2nc(OC3CCCC3)c3c(-c4ccc5nc(C)oc5c4)c[nH]c3n2)c(OC)c1
Result: FALSE

Request: viability, T/C strictly < 3% for this compound? CC(Nc1ccc2c(c1)OCCn1cc(N3C(=O)OCC3C(F)F)nc1-2)C(N)=O (stereo not given) + CN1CCN(c2cc(C(=O)Nc3cc4cc(-c5cnn(C)c5)ccc4cn3)ccn2)CC1
Result: TRUE

Request: viability, T/C strictly < 3% for this compound? CCCS(=O)(=O)Nc1ccc(F)c(C(=O)c2c[nH]c3ncc(-c4ccc(Cl)cc4)cc23)c1F + CN1CCN(c2cc(C(=O)Nc3cc4cc(-c5cnn(C)c5)ccc4cn3)ccn2)CC1
Result: FALSE

Request: viability, T/C strictly < 3% for this compound? O=c1[nH]cc(F)c(=O)[nH]1 + CNC(=O)c1ccc(Nc2nc(OC3CCCC3)c3c(-c4ccc5nc(C)oc5c4)c[nH]c3n2)c(OC)c1
Result: FALSE
